method: qHTS assay to identify small molecule antagonists of the TGF-beta/Smad signaling pathway - cell viability counter screen (AID 1346824); also: nearly all actives have a fitted effect of over 50% in size
conditions_used: SBE-bla HEK293T viability, CellTiter-Glo luminescence; series mostly up to 76.8 µM
Inconclusive results are not listed. Active and inactive are the calls of the source. Calls follow the shape of the dose curve; as a rule, active = well fitted cell-killing curve with a large enough effect in the repeat runs; inconclusive = weak or mixed curves; inactive = flat fitted curve, though single readings scatter.
Mark one answer only. Choices: 1 = active, -1 = inactive

Query block: Record lookup: outcome of this test for "Cc1cc(C)c(C(=O)P(=O)(c2ccccc2)c2ccccc2)c(C)c1" ?
Result block: -1

Query block: Each compound tested received a call. Report the one for "ClC1=C(Cl)[C@]2(Cl)[C@@H]3[C@@H](Cl)[C@H]4O[C@H]4[C@@H]3C1(Cl)C2(Cl)Cl" .
Result block: -1

Query block: Call for entry "Clc1ccccc1-c1ccccc1Cl" :
Result block: -1

Query block: State the result this test recorded for "OCC(c1ccc(Cl)cc1)c1ccc(Cl)cc1" .
Result block: -1

Query block: Could you kindly confirm the outcome this assay logged for "CN1CSC(=S)N(C)C1" ?
Result block: -1

Query block: Recorded test outcome, item "CO/C=C(/C(=O)OC)c1ccccc1Oc1cc(Oc2ccccc2C#N)ncn1"
Result block: 1

Every entry's value here was drawn from PubChem BioAssay (Tox21).
